// values below are reported IC50
Biological target: human orexin-2 receptor (Homo sapiens (Human), UniProt O43614)
Sequence (O43614 whole entry): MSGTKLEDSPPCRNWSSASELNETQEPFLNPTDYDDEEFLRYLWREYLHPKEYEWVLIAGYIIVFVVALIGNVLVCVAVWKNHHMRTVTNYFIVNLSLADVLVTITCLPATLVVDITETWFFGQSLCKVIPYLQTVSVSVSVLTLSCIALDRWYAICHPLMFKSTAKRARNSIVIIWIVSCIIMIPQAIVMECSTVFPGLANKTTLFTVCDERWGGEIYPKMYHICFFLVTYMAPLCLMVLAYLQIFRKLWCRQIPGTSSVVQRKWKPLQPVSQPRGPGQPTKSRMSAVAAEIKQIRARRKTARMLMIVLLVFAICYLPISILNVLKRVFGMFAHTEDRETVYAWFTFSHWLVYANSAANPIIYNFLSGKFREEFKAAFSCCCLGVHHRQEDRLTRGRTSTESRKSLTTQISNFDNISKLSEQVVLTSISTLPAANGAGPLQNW
Assay: FLIPR Ca2+ Flux Assay, orexin-2 receptor
Settings: CHO cells expressing the human orexin-2 receptor; agonist 70 pM Ala-6,12 orexin-A; read-out: hOX2R FLIPR IC50
API: value field is a number in nM; no unit string.

{"COMPOUND": "CCN(CCN(C)c1nc(C)cc(C)n1)C(=O)c1ccccc1-n1nccn1", "MEASURE NAME": "IC50", "DISPLAY UNIT": "nM", "TEST RESULT": 36.5}

### Prompt GET /values?readout=IC50&item= CCN(CCN(C)c1nc(C)cc(C)n1)C(=O)c1ccccc1-n1ncnn1
### Response 8.8

### Prompt Next compound: CCN(CCN(C)c1cc(C#N)ccn1)C(=O)c1ccccc1COC
### Response 688

### Prompt Next compound: CCN(CCN(C)c1nc(C)cc(C)n1)C(=O)c1nccnc1N1CCCC1
### Response 324

### Prompt Next compound: CCN(CCN(C)c1cc(C#N)ccn1)C(=O)c1ccccc1-c1ncc[nH]1
### Response 1630

### Prompt Next compound: CCN(CCN(C)c1cc(C#N)ccn1)C(=O)c1c(F)cccc1-n1nccn1
### Response 33.9

### Prompt Next compound: CCN(CCN(C)c1nccc(C(C)(C)O)n1)C(=O)c1ccccc1OCC(F)(F)F
### Response 32

### Prompt Next compound: CCN(CCN(C)c1cccc(C(C)(C)O)n1)C(=O)c1ccccc1OC(F)(F)F
### Response 73.7

### Prompt Next compound: CCN(CCN(C)c1nc(C)cc(C)n1)C(=O)c1cccnc1-c1ccccc1
### Response 26.4

### Prompt Next compound: CCN(CCN(C)c1nccc(C#N)c1Cl)C(=O)c1ccccc1-n1nccn1
### Response 110

### Prompt Next compound: CCN(CCN(CC)c1nc(C)cc(C)n1)C(=O)c1ccccc1-n1nccn1
### Response 36.6

### Prompt Next compound: CN(CCN(Cc1ccccc1)C(=O)c1ccccc1-n1nccn1)c1cc(C#N)ccn1
### Response 112

### Prompt Next compound: CCN(CCN(C)c1cccc(C(C)(C)O)n1)C(=O)c1cccnc1OC(C)C
### Response 387

### Prompt Next compound: CCN(CCN(C)c1cc(C#N)ccn1)C(=O)c1ccccc1-n1nccn1
### Response 14.5

All values here come from patent US10011595B2.
